Consider the following compounds; for each one, report its growth.
- Test system: M14 melanoma
- MEASUREMENT PROTOCOL: NCI-60 one-dose screen, 48 h (100 = growth as untreated, 0 = no growth, -100 = all killed)
- CONDITION LABEL: 10 µM unless noted
This is part of a sample that, as a whole, favours compounds with a hit. Of some 83,000 tested, about 20% had one in any assay.
Answer with a number only, understood to be in %.

**Query** Can you look up the measured growth of "C#C[C@]1(O)CC[C@H]2[C@@H]3CC=C4c5sc(N6CCN(C)CC6)nc5CC[C@]4(C)[C@H]3CC[C@@]21C" for me?
**Result** -73.4

**Query** Bench note: what growth did "COc1cc(-c2nc(-c3ccccc3)[nH]c2-c2ccnc(NCCCNS(=O)(=O)c3cccc(F)c3)n2)ccc1F" show?
**Result** 93.3

**Query** Value lookup for growth; key = "Nn1c(=O)n(-c2cccc(C(F)(F)F)c2)c(=O)c2cc(-c3ccc(F)cc3F)ccc21"
**Result** 17.1

**Query** Given "CCCCOc1ccc(S(=O)(=O)N2CCN(c3nc(C)cc(N4CCOCC4)n3)CC2)cc1" , state its recorded growth.
**Result** -15.9

**Query** Sample "COc1ccc(C(C)=C(c2ccc(OCCN3CCCCCC3)cc2)c2ccc(OCCN3CCCCCC3)cc2)cc1" — what was its growth?
**Result** -89.5

**Query** Quick one: growth of "Cn1cc(-c2nnc(N)nc2-c2c[nH]c3ccc(Br)cc23)c2cc(Br)ccc21" ?
**Result** 102

**Query** Need growth, item NC1[C@H]2CN(c3cnc(C(=O)Nc4cc(F)cc5cccnc45)cn3)C[C@@H]12 (stereo not given in full)
**Result** 79.3

**Query** Which growth reading was recorded for the compound "CCOC(=O)Nc1ccc2c(ccn2C(=O)c2cccc(F)c2)c1" ?
**Result** 25.3

**Query** Form field: reported growth of "O=C(CSc1nc2ccccc2c(=O)n1-c1ccccc1)Nc1ccc(S(=O)(=O)Nc2nccs2)cc1"
**Result** 78.6

**Query** Could you tell me which growth is on file for "O=C1/C(=C/C=C/c2ccco2)SC(=S)N1Cc1ccccc1" ?
**Result** 92.1

**Query** GET /values?readout=growth&item= "CC(C)(C)OC(=O)NCc1ccc(CNc2c([N+](=O)[O-])cnc3ccccc23)cc1"
**Result** 76

**Query** growth lookup needed for "Brc1cc(-c2cc(-c3ccc4c(c3)OCCO4)[nH]n2)cs1" , thanks.
**Result** 35

**Query** Which growth value belongs to "CNC(=O)Nc1ccc(Nc2cc(-c3ccc(-n4cccn4)cc3)[nH]n2)c(C)c1" ?
**Result** 126

**Query** I am curious: what growth value has been reported for Cc1[nH]c(C(=O)Nc2ccc(C(N)=O)cc2N2CCOC(C)C2)c(Cl)c1Cl (stereo not given) ?
**Result** 101

**Query** Consider the compound "Clc1cccc(/C=N/Nc2nc(N/N=C/c3cccc(Cl)c3)nc(N3CCCCC3)n2)c1" and give its measured growth.
**Result** 95.3

**Query** What does the record list as growth for "COc1ccc([C@H]2C(=O)N(c3cc(OC)c(OC)c(OC)c3)[C@@H]2c2ccc(OC)c(O)c2)cc1" ?
**Result** 4.54

**Query** What value of growth has been recorded for this entry: "Cn1ncc2c(C(=O)c3ccc(F)cc3)nc(C(C)(C)C)nc21"
**Result** 100

**Query** Which growth is reported for this compound? "CC(=O)OCCCCN1C=C/C(=C\C(=O)n2ccc3ccccc32)c2ccccc21"
**Result** 101

**Query** Which measured growth value corresponds to "Cn1cc(-c2cc3ncnc(Nc4ccc(CC(=O)Nc5nc(C(C)(C)C)cs5)cc4)c3s2)cn1" ?
**Result** 41.5

**Query** Query: growth; subject: "O=C1C(SCc2ccccc2)=C(Cl)CN1c1ccc(Cl)cc1"
**Result** 78

----------
For each entry below, report its growth value.
- Test system: HCC-2998 colon
- MEASUREMENT PROTOCOL: NCI-60 one-dose screen, 48 h (100 = growth as untreated, 0 = no growth, -100 = all killed)
- CONDITION LABEL: 10 µM unless noted
About 83,000 compounds went through this panel and 20% of them were active in at least one assay; those are over-represented in the sample as a whole.
Please respond with the number in % and leave the unit unwritten.

**Query** Give the measured growth of "COc1ccc(-c2c(C(N)=O)c(N)n(Cc3nc4ccccc4[nH]3)c(=O)c2C#N)c(OC)c1" .
**Result** 110

**Query** Which growth is listed for COc1cccc2c1C=CC1(O2)Oc2cccc(OC)c2C=C1C (centres undefined) ?
**Result** 15.8

**Query** I would be grateful if you could share the reported growth for "CC(=O)OC[C@@]12Oc3c(cccc3-c3ccc(O)c4c3O[C@]3(COC(C)=O)C(=C4O)C(=O)C[C@H](C)[C@@H]3OC(C)=O)C(O)=C1C(=O)C[C@H](C)[C@@H]2OC(C)=O" .
**Result** 23.7

**Query** Given the molecule "NNc1nnc2nc(Nc3ccccc3)nc(Nc3ccc(S(N)(=O)=O)cc3)n12" , what is its reported growth?
**Result** 104

----------
- Test system: SR leukemia
- MEASUREMENT PROTOCOL: NCI-60 one-dose screen, 48 h (100 = growth as untreated, 0 = no growth, -100 = all killed)
- CONDITION LABEL: 10 µM unless noted
About 83,000 compounds went through this panel and 20% of them were active in at least one assay; those are over-represented in the sample as a whole.
For each record, write down the corresponding growth.
Give the value, in units of %, as a plain number.

**Query** # input compound: "COc1ccc2c(c1)c(-c1nnc(N)nc1-c1c[nH]c3ccc(F)cc13)cn2C" ; wanted: its growth
**Result** 12.5

**Query** Which growth value is on record for "O=C(Nc1cccc(C(F)(F)F)c1)N1CCN(c2cc(-c3cn(-c4ccccc4)nc3-c3cccc(O)c3)ccn2)CC1" ?
**Result** 27.6

**Query** Need growth of "O=[N+]([O-])c1ccc(NC(=S)NNC(=S)Nc2ccc(Br)cc2)cc1" , thanks.
**Result** 79.4

**Query** What does the record list as growth for Nc1cc(C(=O)N/N=C\c2ccc(OC(F)F)c(OC3CCCC3)c2)nn1CC(O)c1ccccc1 (centres undefined) ?
**Result** 88.1

**Query** Data request, read-out growth, for "C#CCOc1ccc(/C=N/Nc2nc(-c3ccc(OC)cc3)cs2)cc1"
**Result** 47

**Query** Query: growth; subject: "N#C/C(=C\c1ccc(-c2ccc(Cl)c(Cl)c2)o1)C(=O)Nc1ncc(Cc2ccc(Cl)cc2)s1"
**Result** 16

**Query** Param item = CC(=O)N1N=C(c2cc3ccccc3oc2=O)CC1c1cn(-c2ccccc2)nc1-c1ccc(C)cc1 (centres undefined) ; retrieve measured growth.
**Result** 101

**Query** # growth lookup, item "O=C(Nc1ccccc1)Nc1nc2ccc([N+](=O)[O-])cc2[nH]1"
**Result** 70.4

**Query** Fill in the blank: the reported growth of "CCOC(=O)c1cccc(NC2=C(Cl)C(=O)c3nc(C)ccc3C2=O)c1" is ____.
**Result** 37.1

----------
- System: SNB-19 CNS
- MEASUREMENT PROTOCOL: NCI-60 one-dose screen, 48 h (100 = growth as untreated, 0 = no growth, -100 = all killed)
- CONDITION LABEL: 10 µM unless noted
This is part of a sample that, as a whole, favours compounds with a hit. Of some 83,000 tested, about 20% had one in any assay.
PARAMETER: growth (%)
Please give a number only; it is taken to be in %.

**Query** Data request, read-out growth, for "CNC(=O)c1cc(-n2ccc3cc(NC(=O)Nc4ccc(N5CCN(C)CC5)c(C(F)(F)F)c4)ccc32)ccn1"
**Result** 83.1

**Query** Bench note: what growth did "Clc1ccc2[nH]cc(-c3cncn3CCc3ccc4c(c3)OCO4)c2c1" show?
**Result** 82.1

**Query** Reported growth, compound "O=C(/C=C/C=C/c1csc(Br)n1)NO" : ____
**Result** 94.4

**Query** What value of growth has been recorded for this entry: O=S1SC(c2ccccc2)=NN1c1cc(F)cc(F)c1 (stereo not given)
**Result** 49.8

**Query** growth lookup needed for COc1ccc(C2CC(c3cccc(OCCCCOc4cccc(C5=NOC(c6ccc(OC)cc6)C5)c4)c3)=NO2)cc1 (stereo not given) , thanks.
**Result** 92

----------
- Tested on: UO-31 renal
- MEASUREMENT PROTOCOL: NCI-60 one-dose screen, 48 h (100 = growth as untreated, 0 = no growth, -100 = all killed)
- CONDITION LABEL: 10 µM unless noted
This is part of a sample that, as a whole, favours compounds with a hit. Of some 83,000 tested, about 20% had one in any assay.
Given measured growth, output 1 if it is greater than or equal to 60% and -1 if not.

**Query** # check: growth of "O=C(/C=C/c1cccc(Br)c1)c1cccc(OCCCCOc2cccc(C(=O)/C=C/c3cccc(Br)c3)c2)c1" is greater than or equal to 60%
**Result** 1

**Query** Answer whether growth of "C#CCOc1ccc(/C=N/Nc2nc(-c3ccc(OC)cc3)cs2)cc1" is greater than or equal to 60%.
**Result** 1

**Query** Can "COc1cc2oc(-c3cccc(NC(=O)c4cccc([N+](=O)[O-])c4)c3)cc(=O)c2c(OC)c1OC" be said to have growth at or above 60%?
**Result** -1

**Query** Could you tell me if the measured growth of C=C(C=O)[C@@H]1CC[C@]2(C(=O)O)CC[C@]3(C)C(CC[C@@H]4[C@@](C)(CCC#N)[C@H](C(=C)C=O)CC[C@]43C)[C@@H]12 (stereo partly drawn) reaches 60% or more?
**Result** -1

**Query** Threshold query (growth >= 60%) on "O=C(/C=C/c1cccc(F)c1)c1cccc(OCCCOc2cccc(C(=O)/C=C/c3cccc(F)c3)c2)c1"
**Result** -1

**Query** Does the reported growth for "CC(=O)OCCCCN1C=C/C(=C\C(=O)n2ccc3ccccc32)c2ccccc21" fall at or above the 60% mark?
**Result** 1

**Query** Decide: is the reported value of growth for "O=C(/C=C/c1ccc(F)cc1)Nc1cccc2cccnc12" equal to or greater than 60%?
**Result** 1
